- tested.on: Nucleoprotein (Lymphocytic choriomeningitis virus (strain Armstrong)) (UniProt P09992)
- Sequence (P09992 whole entry, looked up): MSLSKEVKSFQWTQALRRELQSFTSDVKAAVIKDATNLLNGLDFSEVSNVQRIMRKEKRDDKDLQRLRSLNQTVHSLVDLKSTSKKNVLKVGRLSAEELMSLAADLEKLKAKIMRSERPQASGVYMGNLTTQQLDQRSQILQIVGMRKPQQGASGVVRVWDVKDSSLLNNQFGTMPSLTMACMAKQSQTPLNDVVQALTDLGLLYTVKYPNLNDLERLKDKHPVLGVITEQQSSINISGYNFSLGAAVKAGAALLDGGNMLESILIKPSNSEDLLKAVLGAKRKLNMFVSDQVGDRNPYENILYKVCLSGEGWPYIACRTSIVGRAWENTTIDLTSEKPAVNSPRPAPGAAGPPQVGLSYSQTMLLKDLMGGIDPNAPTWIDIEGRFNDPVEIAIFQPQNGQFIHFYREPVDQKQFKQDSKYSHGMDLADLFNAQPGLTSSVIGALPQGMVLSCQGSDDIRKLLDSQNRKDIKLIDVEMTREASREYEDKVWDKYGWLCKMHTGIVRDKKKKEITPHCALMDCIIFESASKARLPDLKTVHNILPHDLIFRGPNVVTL
- assay.summary: qHTS for Inhibitors of the Functional Ribonucleoprotein Complex (vRNP) of Lymphocytic Choriomeningitis Arenaviruses (LCMV): LCMV Primary Screen - GLuc reporter signal (AID 1347086); further: nearly all actives have a fitted effect of over 70% in size
- run.parameters: LCMV minigenome vRNP cell assay, Gaussia luciferase reporter; series mostly up to 57.5 µM
Results filed as inconclusive are left out. Calls of active or inactive are those of the source. The call rests on the fitted dose curve.
Possible outcomes: active, inactive

compound=CN(C)C(=O)[C@H](O)[C@H](Cc1ccccc1)NC(=O)c1cc2cc(Cl)ccc2[nH]1 class=inactive
compound="CC(C)=CCCC1(C)C=Cc2c(c(C)cc3c2[nH]c2cc(O)ccc23)O1 (stereo not given)" class=inactive
compound=O=c1c(-c2ccc(O)cc2)coc2cc(O[C@@H]3O[C@H](CO)[C@H](O)[C@H](O)[C@H]3O)ccc12 class=inactive
compound=O=C(O)c1nc(=O)[nH]c(=O)[nH]1 class=inactive
compound=COc1cccc2c(NCc3ccccc3)nc(-n3c(N)nc4ccccc43)nc12 class=inactive
compound=CCCCCCCCCC(=O)O class=inactive
compound="COc1ccc2cc1Oc1ccc(cc1)CC1c3cc(c(OC)cc3CCN1C)Oc1c(OC)c(OC)c(OC)c3c1C(C2)N(C)CC3 (stereo not given)" class=inactive
compound="CC1CCC(C(=O)N(c2cc(C#CC(C)(C)C)sc2C(=O)O)C2CCC(O)CC2)CC1 (stereo not given)" class=inactive
compound=O=C(O)c1cc([N+](=O)[O-])ccc1NCCCc1ccccc1 class=inactive
compound=N#Cc1c(C2CCNCC2)cc(-c2c(O)cccc2OCC2CC2)nc1N class=active
compound="CC(=O)O[C@H]1[C@H]2O[C@]23[C@@H]2CC[C@]4(O)C[C@@H](O)CC[C@]4(C)C2CC[C@]3(C)[C@H]1c1ccc(=O)oc1 (stereo not given in full)" class=active
compound=CCc1cc2c(cc1N1CCC(N3CCOCC3)CC1)C(C)(C)c1[nH]c3cc(C#N)ccc3c1C2=O class=inactive
compound=O=C(O)/C=C/C(=O)O class=inactive
compound=N#C/C(=C\c1ccc(O)c(O)c1)C(=O)NCCCc1ccccc1 class=inactive
compound="Nc1ncnc2c1ncn2C1CCCO1 (stereo not given)" class=inactive
compound=COc1cc(C(=O)O[C@@H]2CC(C)=CC[C@@]3(C)CC[C@](O)(C(C)C)[C@H]23)ccc1O class=inactive
compound=O=C1CCCCCCCCCCCCCCO1 class=inactive
compound=N[C@H](C(=O)O)c1ccc(O)c(C(=O)O)c1 class=inactive
compound=O=C(c1ccc(C(=O)N2CCC(N3CCCC3)CC2)c(Nc2ccccc2)c1)N1CCC(N2CCCC2)CC1 class=inactive
compound=Cc1cnccn1 class=inactive
compound=CN(C)Cc1cccc(N=C(c2ccccc2)c2c(O)[nH]c3cc(C(=O)N(C)C)ccc23)c1 class=inactive
compound=N#CC(=C(O)c1ccc(Cl)cc1Cl)c1nc2cc(Cl)ccc2c(=O)[nH]1 class=inactive
compound=O=C(O)C1=CCCN(CCON=C(c2ccccc2)c2ccccc2)C1 class=inactive
compound="CC(C)=CCCC(C)CCOC=O (stereo not given)" class=inactive
compound=CC(=O)O[C@H]1C[C@@H]2CC[C@H]3[C@H]4C[C@H]([N+]5(C)CCCCC5)[C@@H](OC(C)=O)[C@@]4(C)CC[C@@H]3[C@@]2(C)C[C@H]1[N+]1(C)CCCCC1 class=inactive
compound=O=c1cc(-c2cccc3c2Sc2ccccc2S3)oc(N2CCOCC2)c1 class=inactive
compound=C[C@@H]1O[C@@H](O[C@H]2CC[C@@H](O[C@H]3[C@H](O)C[C@H](c4ccc5c(c4O)C(=O)C4=C(C5=O)[C@@]5(O)C(=O)C[C@](C)(O[C@H]6CC[C@H](O[C@H]7C=CC(=O)[C@H](C)O7)[C@H](C)O6)C[C@@]5(O)C=C4)O[C@@H]3C)O[C@H]2C)C=CC1=O class=inactive
compound=Cc1cc(=O)c2c(O)c3c(O)cc(O)c4c5c(O)cc(O)c6c(O)c7c(=O)cc(C)c8c1c2c(c34)c(c65)c78 class=inactive
compound="COC1=CC(=O)CC(C)C12Oc1cc(OC)cc(OC)c1C2=O (stereo not given)" class=inactive
compound=O=C(CO)c1c[nH]c2ccccc12 class=inactive
compound=C[N+](C)([O-])CCNc1ccc(NCC[N+](C)(C)[O-])c2c1C(=O)c1c(O)ccc(O)c1C2=O class=inactive
compound="O=C1CCCC2[C@@H]3CCC[N@+]4([O-])CCC[C@H](CN12)C34 (stereo not given in full)" class=inactive
compound=O=C[C@H](O)[C@@H](O)[C@H](O[C@H]1O[C@H](CO)[C@@H](O[C@H]2O[C@H](CO)[C@@H](O)[C@H](O)[C@H]2O)[C@H](O)[C@H]1O)[C@H](O)CO class=inactive
compound="C[C@@H]1CC[C@]2(C(=O)O[C@@H]3O[C@H](CO)[C@@H](O)[C@H](O)[C@H]3O)CC[C@]3(C)C(=CCC4[C@@]5(C)C[C@@H](O)[C@H](O)[C@@](C)(C(=O)O[C@@H]6[C@H](O)C[C@@]7(C)C(CC[C@]8(C)C7CC=C7[C@H]9[C@](C(=O)O[C@@H]%10O[C@H](CO)[C@@H](O)[C@H](O)[C@H]%10O)(CC[C@@H](C)[C@@]9(C)O)CC[C@]78C)[C@@]6(CO)C(=O)O)C5CC[C@]43C)[C@@H]2[C@]1(C)O (stereo not given in full)" class=inactive
compound="COC1C(O)C(O)C(O)C(O)C1O (stereo not given)" class=inactive

---

- Tested on: CAOV3
- assay.summary: Primary qHTS to identify gynecologic anti-cancer compounds using libraries of approved drugs and bioactive compounds (AID 1345084); further: nearly all actives have a fitted effect of over 55% in size
- run.parameters: Gynecologic cancer cell panel viability, ATPlite luminescence, 48 h; series mostly up to 57.5 µM
Records with an inconclusive call do not appear. The source made the active and inactive calls. Calls come from the whole dose curve; as a rule, active = well fitted cell-killing curve with a large enough effect; inconclusive = small, poorly fitted or top-dose-only effect, or effect the other way; inactive = flat fitted curve, though single readings scatter.
Outcomes: true for active, false for inactive

compound="CC(=O)O[C@H]1C(=O)[C@]2(C)C(O)C[C@H]3OC[C@@]3(OC(C)=O)[C@H]2[C@H](OC(=O)c2ccccc2)[C@]2(O)C[C@H](O)C(C)=C1C2(C)C (stereo partly specified)" class=false
compound="COC(=O)CC1CC2(C(=O)c3c(O)cccc3C2(O)C(=O)OC)C(C)O1 (stereo unspecified)" class=false
compound="CO[C@H]1[C@@H](O)[C@@H](C)O[C@@H](O[C@@H]2C=C3C(OC(C)=O)CC4(O)C(CC[C@]5(C)[C@@H](C6=CC(=O)OC6)CC[C@]45O)[C@@]3(C)CC2)[C@@H]1O (stereo partly specified)" class=true
compound=C=C(C)[C@@H]1[C@H]2OC(=O)[C@H]1[C@]1(O)C[C@H]3O[C@]34C(=O)O[C@H]2[C@]14C class=false
compound=Cc1ccccc1C1=CCN(C)CC1 class=false
compound="CCC1NC(=O)C2C(Cl)C(Cl)CN2C(=O)C(CC)NC(=O)CC(c2ccccc2)NC(=O)C(CO)NC1=O (stereo unspecified)" class=false
compound=CCCCCn1cc(C(=O)Oc2cccc3cccnc23)c2ccccc21 class=false
compound=C=C1CC[C@H]2[C@@H](/C=C(\C)C(=O)[C@@]3(OC(C)=O)C[C@H](C)[C@H](OC(=O)c4ccccc4)[C@@H]3[C@H]1OC(C)=O)C2(C)C class=false
compound="CC(=O)O[C@H]1C[C@@H](C)O[C@H]2O[C@@H]3CC4CC[C@@H]5C(CC[C@]6(C)[C@@H](C7=CC(=O)OC7)CC[C@]56O)[C@@]4(C=O)C[C@H]3O[C@]21O (stereo partly specified)" class=true
compound=C[C@H]1CCC[C@H](O)CCC/C=C/c2cc(O)cc(O)c2C(=O)O1 class=false
compound="CC1=CC2/C=C(\\C)CCCC(O)/C=C/C(=O)OC23C(=O)NC(CC(C)C)C3C1C (stereo unspecified)" class=false
compound=CC(C)=CCC[C@]1(C)C=Cc2c(O)c3c(c(CC=C(C)C)c2O1)O[C@]12C(=C[C@@H]4CC1C(C)(C)O[C@@]2(C/C=C(/C)C(=O)O)C4=O)C3=O class=true
compound="CNc1ccc2oc(C[C@H]3O[C@@]4(CC[C@H]3C)O[C@H](C(C)C(=O)c3ccc[nH]3)[C@H](C)C[C@H]4C)nc2c1C(=O)O (stereo partly specified)" class=true
compound=CO[C@H]1C[C@H](O[C@H]2CC[C@]3(CO)[C@H]4CC[C@]5(C)[C@@H](C6=CC(=O)OC6)CC[C@]5(O)[C@@H]4CC[C@]3(O)C2)O[C@H](C)[C@H]1O class=true
compound=O=C1CN=C(c2cccc(Br)c2)c2oc3ccccc3c2N1 class=false
compound=CC[C@H]1C2CC3[C@@H]4N(C)c5ccccc5[C@]45C[C@@H]([C@H]2[C@H]5O)N3[C@@H]1O class=false

---

- assay.summary: qHTS Assay for Identification of Small Molecule Antagonists for Thrombopoietin (TPO) Signaling Pathway (AID 918); further: potency means the concentration at half of the fitted maximal effect; nearly all actives have a fitted effect of over 60% in size
- run.parameters: TPO-dependent cell signaling reporter, antagonist mode
Records with an inconclusive call do not appear. Active and inactive are the calls of the source. The call rests on the fitted dose curve; in most records, active means well fitted inhibition curve with a large enough effect; inconclusive means small, poorly fitted or top-dose-only effect, or effect the other way, or another doubt; inactive means flat fitted curve, though single readings scatter.
quantity.name: Potency

given_smiles=CC(C)COC(=O)OCN1C(=O)CN(CCN2CC(=O)N(COC(=O)OCC(C)C)C(=O)C2)CC1=O quantity_name=Potency readout_value="0.251 µM (active)"
given_smiles=CC(C)[C@@]1(NC(=O)[C@@H]2C[C@H]3c4cccc5[nH]cc(c45)C[C@@H]3N(C)C2)O[C@@]2(O)[C@H]3CCCN3C(=O)[C@H](Cc3ccccc3)N2C1=O quantity_name=Potency readout_value="10 µM (active)"
given_smiles=OC1(c2ccc(Cl)cc2)CCN(Cc2c[nH]c3ccccc23)CC1 quantity_name=Potency readout_value="10 µM (active)"
given_smiles=C=CCN1CC[C@@]23c4c5ccc(O)c4O[C@H]2/C(=N\N=C2/CC[C@@]4(O)[C@H]6Cc7ccc(O)c8c7[C@@]4(CCN6CC=C)[C@@H]2O8)CC[C@]3(O)[C@@H]1C5 quantity_name=Potency readout_value="12.6 µM (active)"
given_smiles=O=c1oc(Cl)c(Cl)c2ccccc12 quantity_name=Potency readout_value="12.6 µM (active)"
